TARGET OR TEST SYSTEM: PD-1/PD-L1 (Homo sapiens)
Sequence (Q9NZQ7 19-238 limits assumed): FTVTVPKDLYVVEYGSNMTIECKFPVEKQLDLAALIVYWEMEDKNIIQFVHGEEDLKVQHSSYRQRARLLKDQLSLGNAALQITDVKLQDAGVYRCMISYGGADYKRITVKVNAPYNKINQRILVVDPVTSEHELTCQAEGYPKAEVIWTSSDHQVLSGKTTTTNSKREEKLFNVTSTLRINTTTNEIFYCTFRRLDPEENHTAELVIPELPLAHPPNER
EXPERIMENT DESCRIPTION: PD-1/PD-L1 biochemical protein-protein interaction assay (ALPHA)
STATED CONDITIONS: 0.3 nM His tagged PD-L1, 2.5 nM biotinylated Fc-PD-1, 60 minutes at 25° C., read-out: IC50 PD-L1-PD-1 Alpha IC50-mono PD-L1-fcP-D1
READOUT LABEL: IC50 (nM)

Bench note: what IC50 did Cc1c(-c2ccc(OCCNC[C@@H](O)CC(=O)O)cc2)cccc1-c1cccc2c1CC[C@@H]2Oc1nc(OCc2cc(C#N)cc(C#N)c2)c(CNC[C@@H](O)CC(=O)O)cc1Br show?
0.064

What do you have for Cc1c(COc2nc(OCc3ccc(N4CCOCC4)nc3)c(CNC[C@@H](O)CC(=O)O)cc2Br)cccc1-c1cccc(COc2nc(OCc3ccc(N4CCOCC4)nc3)c(CNC[C@@H](O)CC(=O)O)cc2Br)c1C ?
12.3

What do you have for Cc1c(COc2cc(OCc3cncc(C#N)c3)c(CNCCO)cc2Cl)cccc1-c1cccc(-c2ccc(C3CCCN3)cc2)c1C (centres unmarked) ?
2.38

What do you have for COc1nc(OCc2cccc(-c3cccc(COc4ccc(CNCCO)c(OC)n4)c3C#N)c2C)ccc1CNCCO ?
8

What do you have for Cc1c(COc2cc(OCc3cncc(C#N)c3)c(CNCCO)cc2Cl)cccc1-c1cccc(-c2ccc(CNCCO)cc2)c1CF ?
1.57

What do you have for C[C@@](CO)(NCc1cc(Cl)c(O[C@H]2CCc3c(-c4cccc(-c5ccc(S(N)(=O)=O)cc5)c4Cl)cccc32)nc1OCc1cncc(C#N)c1)C(=O)O ?
0.159

a. Cc1c(COc2cc(OCc3cncc(C#N)c3)c(CN[C@@](C)(CO)C(=O)O)cc2Cl)cccc1-c1cccc(-c2cccc([C@H](C)N)c2)c1C
b. COc1nc(O[C@H]2CCc3c(-c4cccc(-c5ccc(CN6CC7(CCC(=O)N7)C6)cc5)c4Cl)cccc32)c(Cl)cc1CN1CC2(CCC(=O)N2)C1
// max by IC50 over [ a , b ] The response must carry the label of the picked entry.
b

====

TARGET OR TEST SYSTEM: PD-1/PD-L1 interaction (Homo sapiens)
Construct: expressed in transfected cells; host or cells: CHO cells (aAPC-PD-L1) co-cultured with Jurkat cells overexpressing PD-1 and an NFAT-luciferase reporter
Sequence (Q9NZQ7 19-290): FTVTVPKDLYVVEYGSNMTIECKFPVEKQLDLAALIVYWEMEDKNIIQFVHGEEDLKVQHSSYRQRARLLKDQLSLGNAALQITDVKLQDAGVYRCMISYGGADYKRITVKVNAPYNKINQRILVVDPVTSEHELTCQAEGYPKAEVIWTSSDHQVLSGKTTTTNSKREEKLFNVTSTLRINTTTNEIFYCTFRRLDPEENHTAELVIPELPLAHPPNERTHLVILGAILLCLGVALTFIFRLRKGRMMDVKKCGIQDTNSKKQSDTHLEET
EXPERIMENT DESCRIPTION: PD-1/PD-L1 NFAT reporter co-culture assay
Type: cell-based
STATED CONDITIONS: Jurkat PD-1 NFAT-luciferase cells co-cultured with aAPC-PD-L1 CHO cells, 6 hrs at 37° C.; read-out: EC50 NFAT Luciferase
pEC50: −log10 of the molar value.
READOUT LABEL: pEC50

a. Cc1c(COc2cc(OCc3cncc(C#N)c3)c(CN3CC[C@@H](O)C3)cc2Cl)cccc1-c1cccc(-c2ncc(CN3CC[C@@H](O)C3)cn2)c1C [Example 454]
b. CC(C)(NCc1cc(Cl)c(O[C@H]2CCc3c(-c4cccc(-c5ccc(S(N)(=O)=O)cc5)c4Cl)cccc32)nc1OCc1cncc(C#N)c1)C(=O)O [Example 289]
c. Cc1c(COc2nc(OCc3cc(C#N)cc(C#N)c3)c(CNCC(=O)O)cc2Cl)cccc1-c1cccc(COc2nc(OCc3cc(C#N)cc(C#N)c3)c(CNCC(=O)O)cc2Cl)c1C [Example 125]
I would appreciate it if you could sort these 3 compounds by pEC50, starting from the smallest number. Form field (ranking): labels in requested order.
a, c, b

====

TARGET OR TEST SYSTEM: PD-L1 (Homo sapiens, UniProt Q9NZQ7)
Construct: determine if they can specifically dimerize the extracellular domains of PD-L1
EXPERIMENT DESCRIPTION: PD-L1/PD-L1 dimerization biochemical protein-protein interaction assay (ALPHA)
Assay type: binding
STATED CONDITIONS: compound-induced PD-L1 dimerization, head prints '1 nM' (0.5 nM His-tagged PD-L1 and 0.5 nM FLAG-tagged PD-L1), read-out: AC50 PDL1 Dimer Alpha 1 nM
READOUT LABEL: AC50 (nM)

Recorded AC50, per entry:
Bench note: what AC50 did Cc1c(COc2cc(OCc3cncc(C#N)c3)c(CN[C@@](C)(CO)C(=O)O)cc2Cl)cccc1-c1cccc(-c2ccc(OCCN[C@@](C)(CO)C(=O)O)cc2)c1C [Example 313] show?
91.3

What do you have for COc1nc(-c2cccc(-c3cccc4c3CC[C@@H]4Oc3nc(OC)c(CN4CC[C@H](C(=O)O)C4)cc3Cl)c2Cl)ccc1CNC[C@H]1C[C@H](O)C1 [Example 712] ?
33

1. COC(=O)[C@@](C)(CO)NCc1cc(Br)c(O[C@H]2CCc3c(-c4cccc(-c5ccc(CNC[C@@H]6CCC(=O)N6)c(OC)n5)c4Cl)cccc32)nc1OCc1cncc(C#N)c1 [Example 743]
2. Cc1c(COc2cc(OCc3cncc(C#N)c3)c(CNC[C@@H](O)CC(=O)O)cc2Cl)cccc1-c1cccc(-c2ccc3c(CNC[C@@H](O)CC(=O)O)cccc3c2)c1C [Example 293]
3. C[C@@](CO)(NCc1cc(Cl)c(O[C@H]2CCc3c(-c4cccc(-c5ccc6c(c5)C[C@@H](N)C6)c4Cl)cccc32)nc1OCc1cncc(C#N)c1)C(=O)O [Example 696]
Ranking field: AC50; order: falling. Form field (ranking): labels in requested order.
2, 1, 3

====

TARGET OR TEST SYSTEM: PD-L1 (Homo sapiens)
Construct: determine if they can specifically dimerize the extracellular domains of PD-L1
EXPERIMENT DESCRIPTION: PD-L1/PD-L1 dimerization biochemical protein-protein interaction assay (ALPHA)
Assay type: binding
STATED CONDITIONS: compound-induced PD-L1 dimerization, head prints '1 nM' (0.5 nM His-tagged PD-L1 and 0.5 nM FLAG-tagged PD-L1), read-out: AC50 PDL1 Dimer Alpha 1 nM
READOUT LABEL: AC50 (nM)

Bench note: what AC50 did Cc1c(COc2cc(OCc3cncc(C#N)c3)c(CNC[C@@H](O)CC(=O)O)cc2Cl)cccc1-c1cccc(-c2ccc(OCCN3CC4(CCC(=O)N4)C3)cc2)c1C [Example 519] show?
103

P. Cc1c(COc2nc(OCCCCC#N)c(CNC[C@@H](O)CC(=O)O)cc2Br)cccc1-c1cccc(COc2nc(OCCCCC#N)c(CNC[C@@H](O)CC(=O)O)cc2Br)c1C [Example 143]
Q. COc1nc(-c2cccc(-c3cccc4c3CC[C@@H]4Oc3nc(OCC#N)c(CNC[C@@H]4CCC(=O)N4)cc3Cl)c2Cl)ccc1CNC[C@@H]1CCC(=O)N1 [Example 658]
// max by AC50 over [ P , Q ] The response must carry the label of the picked entry.
P
(P: 395 nM, Q: 78.5 nM)

====

TARGET OR TEST SYSTEM: PD-1/PD-L1 interaction (Homo sapiens)
Construct: expressed in transfected cells; host or cells: CHO cells (aAPC-PD-L1) co-cultured with Jurkat cells overexpressing PD-1 and an NFAT-luciferase reporter
EXPERIMENT DESCRIPTION: PD-1/PD-L1 NFAT reporter co-culture assay
Assay type: cell-based
STATED CONDITIONS: Jurkat PD-1 NFAT-luciferase cells co-cultured with aAPC-PD-L1 CHO cells, 6 hrs at 37° C.; read-out: EC50 NFAT Luciferase
READOUT LABEL: EC50 (nM)

Recorded EC50, per entry:
Bench note: what EC50 did CC(=O)NCCNCc1ccc(-c2cccc(-c3cccc(COc4cc(OCc5cncc(C#N)c5)c(CN[C@@](C)(CO)C(=O)O)cc4Cl)c3C)c2C)cc1 [Example 362] show?
221

What do you have for COc1nc(OCc2cccc(-c3cccc(COc4nc(OC)c(CN5CCc6[nH]cnc6C5C(=O)O)cc4Cl)c3C)c2C)c(Cl)cc1CN1CCc2[nH]cnc2C1C(=O)O (centres unmarked) [Example 62] ?
19500

What do you have for COc1nc(-c2cccc(-c3cccc4c3CC[C@@H]4Oc3nc(OC)c(CNC[C@@H]4CCC(=O)N4)cc3Br)c2Cl)ccc1CNC[C@@H]1CCC(=O)N1 [Example 736] ?
22

What do you have for Cc1c(COc2cc(OCc3cncc(C#N)c3)c(CN3CC[C@@H](O)C3)cc2Cl)cccc1-c1cccc(-c2ccc(CN3CC(CC(=O)O)C3)cc2)c1C [Example 582] ?
147

What do you have for N#CCOc1cc(-c2cccc(-c3cccc(-c4ccc(CNC[C@@H]5CCC(=O)N5)c(OCC#N)c4)c3Cl)c2Cl)ccc1CNC[C@@H]1CCC(=O)N1 [Example 463] ?
123

What do you have for Cc1c(COc2cc(OCc3cncc(C#N)c3)c(CNC[C@@H](O)CC(=O)O)cc2Cl)cccc1-c1cncc(COc2cc(OCc3cncc(C#N)c3)c(CNC[C@@H](O)CC(=O)O)cc2Cl)c1 [Example 208] ?
10600

a. Cc1c(COc2nc(OCC(N)=O)c(CNC[C@@H](O)CC(=O)O)cc2Br)cccc1-c1cccc(COc2nc(OCC(N)=O)c(CNC[C@@H](O)CC(=O)O)cc2Br)c1C [Example 155]
b. Cc1c(-c2ccc(OCCNC[C@@H](O)CC(=O)O)cc2)cccc1-c1cccc2c1CC[C@@H]2Oc1ccc(CNC[C@@H](O)CC(=O)O)c(OCc2cncc(C#N)c2)n1 [Example 677]
// max by EC50 over [ a , b ] The response must carry the label of the picked entry.
a
(a: 6490 nM, b: 145 nM)

P. COc1cc(OCc2cccc(-c3cccc(COc4cc(OC)c(CNC[C@@H](O)CC(=O)O)cc4C(F)(F)F)c3C)c2C)c(Cl)cc1CNC[C@@H](O)CC(=O)O [Example 357]
Q. COc1cc(-c2cccc(-c3cccc(COc4cc(OCc5cncc(C#N)c5)c(CNC[C@@H](O)CC(=O)O)cc4Cl)c3C)c2C)ccc1C1=NCCN1 [Example 502]
R. COc1nc(OCc2cccc(-c3cccc(COc4nc(OC)c(CNCC5(O)CC5)cc4Cl)c3C)c2C)c(Cl)cc1CNCC1(O)CC1 [Example 175]
Sort ascending by EC50. Form field (ranking): labels in requested order.
Q, P, R

1. Cc1c(COc2ccc(CNC[C@@H](O)CC(=O)O)c(OCc3cncc(C#N)c3)n2)cccc1-c1cccc(COc2ccc(CNC[C@@H](O)CC(=O)O)c(OCc3cncc(C#N)c3)n2)c1C [Example 242]
2. COc1cc(-c2cccc(-c3cccc(COc4cc(OCc5cncc(C#N)c5)c(CN[C@@](C)(CO)C(=O)O)cc4Cl)c3C)c2C)ccc1CNCC1CCC(=O)N1 (some centres unmarked) [Example 508]
Looking only at measured EC50, which entry is lower, 1 or 2 ? The response must carry the label of the picked entry.
2
(2: 156 nM, 1: 288 nM)
